Reported % max is given for each of the following binders.
molecular target: T1, LRP2 CR89 (human, UniProt P98164 1025-1102); experiment: solid-phase assay; OD at the highest ligand concentration as percent of the highest OD of all ligands
T1 construct: domain: CR89; also called YVWR; L2 CR89; not shown: N-terminal hexahistidine and S-peptide tags of pET30(+)a
T1 sequence (P98164 1025-1102): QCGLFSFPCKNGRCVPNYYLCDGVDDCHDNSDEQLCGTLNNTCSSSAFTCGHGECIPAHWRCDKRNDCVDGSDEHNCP

stdin: Can you share its % max? I mean this binder: MegaRAP1 d3 revertant K217E (ligand, MegaRAP1 d3 with position 217 reverted to wild type; not shown: N-terminal hexahistidine and S-peptide tags of pET30(+)a) LDRLRRVSHQGYTTEAEFEEPRVIDLWDLAQSANLTDKELEAFREELKYFKAKIEAHNHYQKQLEIAHEELRHAESVGDGERVSRSREKHALLEGRTKELGYTVKKHLQDLSGRISRAR
stdout: 88%

stdin: For MegaRAP1 d3 double revertant K251E, E270K (ligand, not shown: N-terminal hexahistidine and S-peptide tags of pET30(+)a) LDRLRRVSHQGYTTEAKFEEPRVIDLWDLAQSANLTDKELEAFREELKYFEAKIEAHNHYQKQLEIAHEKLRHAESVGDGERVSRSREKHALLEGRTKELGYTVKKHLQDLSGRISRAR , what is its reported % max?
stdout: 16%

stdin: Requested read-out: % max. Entry: RAP d3 forward mutant E251K (ligand, The paragraph gives only the position; the change E251K follows from the mutagenic primers; not shown: N-terminal hexahistidine and S-peptide tags of pET30(+)a) LDRLRRVSHQGYSTEAEFEEPRVIDLWDLAQSANLTDKELEAFREELKHFKAKIEKHNHYQKQLEIAHEKLRHAESVGDGERVSRSREKHALLEGRTKELGYTVKKHLQDLSGRISRAR
stdout: 5%

stdin: State the recorded % max for this entry: RAP d3 forward mutant E251K, K270E (ligand, also called K270E in combination with E251K; not shown: N-terminal hexahistidine and S-peptide tags of pET30(+)a) LDRLRRVSHQGYSTEAEFEEPRVIDLWDLAQSANLTDKELEAFREELKHFKAKIEKHNHYQKQLEIAHEELRHAESVGDGERVSRSREKHALLEGRTKELGYTVKKHLQDLSGRISRAR
stdout: 2%

stdin: // returns reported % max for input RAP d3 forward mutant K270E (ligand, also called K270E alone; not shown: N-terminal hexahistidine and S-peptide tags of pET30(+)a) LDRLRRVSHQGYSTEAEFEEPRVIDLWDLAQSANLTDKELEAFREELKHFEAKIEKHNHYQKQLEIAHEELRHAESVGDGERVSRSREKHALLEGRTKELGYTVKKHLQDLSGRISRAR
stdout: 2%

stdin: For RAP d3 forward mutant E217K (ligand, The paragraph gives only the position; the change E217K follows from the mutagenic primers and the MegaRAP1 mutation set; also called single-site RAP d3 mutant at 217; not shown: N-terminal hexahistidine and S-peptide tags of pET30(+)a) LDRLRRVSHQGYSTEAKFEEPRVIDLWDLAQSANLTDKELEAFREELKHFEAKIEKHNHYQKQLEIAHEKLRHAESVGDGERVSRSREKHALLEGRTKELGYTVKKHLQDLSGRISRAR , what is its reported % max?
stdout: 5%

More entries:
stdin: What value of % max has been reported for the following binder? MegaRAP1 d3 revertant E270K (ligand, MegaRAP1 d3 with position 270 reverted to wild type; also called MegaRAP1 d3 E270K; E270K revertant; not shown: N-terminal hexahistidine and S-peptide tags of pET30(+)a) LDRLRRVSHQGYTTEAKFEEPRVIDLWDLAQSANLTDKELEAFREELKYFKAKIEAHNHYQKQLEIAHEKLRHAESVGDGERVSRSREKHALLEGRTKELGYTVKKHLQDLSGRISRAR
stdout: 100%

stdin: GET /values?readout=% max&item= RAP d3 (wild-type domain 3 of human RAP, amino acids 201-319 of mature RAP) (ligand, Expressed in E. coli from pET30(+)a, Ni-NTA purified; also called wild-type RAP d3; recombinant RAP d3; not shown: N-terminal hexahistidine and S-peptide tags of pET30(+)a) LDRLRRVSHQGYSTEAEFEEPRVIDLWDLEQSANLTDKELEAFREELKHFEAKIEKHNHYQKQLEIAHEKLRHAESVGDGERVSRSREKHALLEGRTKELGYTVKKHLQDLSGRISRAR
stdout: 5%

Origin of values: patent US20100210517A1
